Catalogue of compounds with associated MIC
Tested on: Enterococcus faecium
Assay: Antibacterial activity against vancomycin resistant Enterococcus faecium Van M HS-08267 assessed as inhibition of bacterial growth
Format: functional
recorded-metric: MIC (µg/mL)

substance-smiles	reported-value
CN[C@H](CC(C)C)C(=O)N[C@H]1C(=O)N[C@@H](CC(N)=O)C(=O)N[C@H]2C(=O)N[C@H]3C(=O)N[C@H](C(=O)N[C@H](C(=O)N/N=C/c4ccc(-c5ccc(C(F)(F)F)cc5)cc4)c4cc(O)cc(O)c4-c4cc3ccc4O)[C@H](O)c3ccc(c(Cl)c3)Oc3cc2cc(c3O[C@@H]2O[C@H](CO)[C@@H](O)[C@H](O)[C@H]2O[C@H]2C[C@](C)(N)[C@H](O)[C@H](C)O2)Oc2ccc(cc2Cl)[C@H]1O	2
CN[C@H](CC(C)C)C(=O)N[C@H]1C(=O)N[C@@H](CC(N)=O)C(=O)N[C@H]2C(=O)N[C@H]3C(=O)N[C@H](C(=O)N[C@H](C(=O)N/N=C/c4ccc(-c5ccccc5)cc4)c4cc(O)cc(O)c4-c4cc3ccc4O)[C@H](O)c3ccc(c(Cl)c3)Oc3cc2cc(c3O[C@@H]2O[C@H](CO)[C@@H](O)[C@H](O)[C@H]2O[C@H]2C[C@](C)(N)[C@H](O)[C@H](C)O2)Oc2ccc(cc2Cl)[C@H]1O	2

The origin of these recorded values is ChEMBL document CHEMBL4808179.
